# Target or system: T1, CD32bECDHis (human, UniProt P31994 43-223, limits assumed)
# T1 construct: Produced in HEK-293F cells; also called extracellular domain of CD32b with C-terminal His tag; soluble CD32b
# T1 sequence (looked up): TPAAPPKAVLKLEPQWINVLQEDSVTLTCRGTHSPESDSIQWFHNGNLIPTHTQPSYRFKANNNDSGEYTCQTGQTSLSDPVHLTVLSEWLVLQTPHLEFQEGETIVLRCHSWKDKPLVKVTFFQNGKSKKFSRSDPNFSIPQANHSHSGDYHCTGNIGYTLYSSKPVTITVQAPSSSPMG
# Experiment summary: TR-FRET competition against HuMab-KLH-AlexaFluor 647
Entries annotated with measured IC50

Binder | U | IC50
Antibody 024 (antibody, V domains shown, also called HuMab 024) VH: QVQLVQSGAEVKKPGASVKVSCKASGYTFTSYGLSWVRQAPGQGLEWMGWISPYNGNTHYAQKLQGRVTMTTDTSTSTAYMDLRSLRSDDTAVYYCARDSAAHGMDVWGQGTTVTVSS VL: DIQMTQSPSSLSASVGDRVTITCRASQGISSWLAWYQQKPEKAPKSLIYAASSLQSGVPSRFSGSRSGTDFTLTISSLQPEDFATYYCQQYNSYPYTFGQGTKLEIKR | nM | 0.45
Antibody 020 (antibody, V domains shown, also called HuMab 020) VH: QVQLVQSGGEVKKPGASVKVSCKTSGYTFTSYGISWVRQAPGQGLEWMGWISAYNGNTKYAQKLQGRLTMTTDTSTTTAYMELRSLRSDDTAVYYCARDSAAHGMDVWGQGTTVTVSS VL: DIQMTQSPSSLSASVGDRVTITCRASQGISSWLAWYQQKPEKAPKSLIYAASSLQSGVPSRFRGSGSGTDFTLTISSLQPEDFATYYCQQYNSYPYTFGQGTKLEIKR | nM | 0.35
Antibody 026 (antibody, V domains shown, Human antibody; also called HuMab 026) VH: QVQLVQSGAEVKKPGASVKVSCKASGYTFTSYGLSWVRQAPGQGLEWMGWISAYNGNTNYAQKLQGRVTMTTDTSTSTAYMDLRSLRSDDTAVYYCARDSAAHGMDVWGQGTTVTVSS VL: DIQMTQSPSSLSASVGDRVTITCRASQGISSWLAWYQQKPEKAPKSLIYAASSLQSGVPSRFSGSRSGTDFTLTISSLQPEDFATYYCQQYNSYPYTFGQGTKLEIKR | nM | 0.3
Antibody 016 (antibody, human IgG1, V domains shown, Human antibody; also called HuMab 016) VH: QVQLVESGGGVVQPGRSLRLSCAASGFTFSSYGIHWVRQAPGKGLEWVAVIGYDGSDKNYADSVKGRFTIFRDNSKNTLYLQMNSLRAEDTAVYYCARDQLGDAFDIWGQGTMVTVSS VL: EIVLTQSPATLSLSPGERATLSCKASQSVSSSLAWYQQKPGQAPRLLIYDASNRATGIPARFSGSGSGTDFTLTISSLEPEDFAVYYCQQRSNWPPYTFGQGTKLEIKR | nM | 0.24
Antibody 038 (antibody, human IgG1, V domains shown, Human antibody; also called HuMab 038) VH: QVQLVESGGGVVQPGRSLRLSCAASGFTFSTYGMHWVRQAPGKGLEWVAVISHDGSDKYYADSVKGRFTISRDNSKNTLYLQMNSLRAEDTAVYYCARDQSIIETFDYWGQGTLVTVSS VL: EIVLTQSPATLSLSPGERATLSCRASQSVSSYLAWYQQKPGQAPRLLIYDASNRATGIPARFSGSGSGTDFTLTISSLEPEDFAVYYCQQRSNWGFTFGPGTKVDIKR | nM | 0.37
Antibody 028 (antibody, V domains shown, List 1 gives no VL for antibody 028; The VL is therefore uncertain; also called HuMab 028) VH: QVQVVQSGAEVKKPGASVKVSCKTSGYTFTSYGISWVRQAPGQGLEWMGWISAYNGNTKYAQKLQGRLTMTTDTSTTTAYMELRSLRSDDTAVYYCARDSAAHGMDVWGQGTTVSVSS VL: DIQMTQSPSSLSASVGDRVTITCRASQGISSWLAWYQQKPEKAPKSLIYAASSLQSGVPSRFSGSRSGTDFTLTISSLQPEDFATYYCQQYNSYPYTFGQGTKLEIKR | nM | 0.35
Antibody 022 (antibody, V domains shown, also called HuMab 022) VH: QVQLVQSGAEVKKPGASVKVSCKASGYTFTSYGLSWVRQAPGQGLEWMGWISPYNGNTHYAQKLQGRVTMTTDTSTSTADMDLRSLRSDDTAVYYCARASAAHGMDVWGQGTTVTVSS VL: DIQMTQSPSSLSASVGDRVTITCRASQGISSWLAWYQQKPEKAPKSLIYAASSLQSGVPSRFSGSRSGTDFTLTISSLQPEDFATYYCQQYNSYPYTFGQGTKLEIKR | nM | 0.44
